Data origin: PubChem BioAssay AID504332

target: Histone-lysine N-methyltransferase EHMT2 (Homo sapiens) (UniProt Q96KQ7); experiment: qHTS Assay for Inhibitors of Histone Lysine Methyltransferase G9a; conditions: G9a H3K9 monomethylation, AlphaScreen, 2 h; series mostly up to 59 µM; note: nearly all actives have a fitted effect of over 75% in size
Sequence (Q96KQ7 913-1193 limits assumed): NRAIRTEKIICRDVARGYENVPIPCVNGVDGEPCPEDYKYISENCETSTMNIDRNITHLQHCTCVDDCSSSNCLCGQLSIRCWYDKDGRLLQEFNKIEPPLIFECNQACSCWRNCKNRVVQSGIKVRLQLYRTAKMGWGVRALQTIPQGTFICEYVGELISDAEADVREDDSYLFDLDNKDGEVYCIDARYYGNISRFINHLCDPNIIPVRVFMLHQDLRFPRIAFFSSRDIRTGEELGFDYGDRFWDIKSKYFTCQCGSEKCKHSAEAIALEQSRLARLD
About 31,000 (8.9%) of roughly 350,000 compounds were called active. Roughly 15% stayed inconclusive and do not appear here. Calls come from the whole dose curve; as a rule, active = well fitted inhibition curve with a large enough effect; inconclusive = small, poorly fitted or top-dose-only effect; inactive = no such curve, though single readings can be large or run the other way. The sample holds actives, similar compounds and a random draw of the others, so the mix is not that of the screen.
Your response should consist of one outcome taken from active, inactive

Task item: Which outcome was entered for the compound CCOc1ccccc1N1CCN(C(=S)Nc2ccc(S(N)(=O)=O)cc2)CC1 in this test?
Reply: inactive

Task item: Which outcome was entered for the compound Cc1ccc(C2=NN(C(=O)CSc3nc(N)cc(N)n3)C(c3ccco3)C2)cc1 (stereo not given) in this test?
Reply: active

Task item: Which outcome was entered for the compound CC1CN(C(=S)Nc2ccc(S(N)(=O)=O)cc2)CC(C)O1 (stereo not given) in this test?
Reply: inactive

Task item: Which outcome was entered for the compound O=C(Nc1ccc(C(F)(F)F)cc1)c1cccc(-n2cnnn2)c1 in this test?
Reply: inactive

Task item: Which outcome was entered for the compound COc1ccc(/C=C2\SC(=O)N(CCC(=O)NCCCn3ccnc3)C2=O)cc1 in this test?
Reply: inactive

Task item: Which outcome was entered for the compound O=C(Nc1nc2ccccc2s1)c1ccc2c(c1)OCO2 in this test?
Reply: inactive

Task item: Which outcome was entered for the compound Cc1cc(Br)ccc1NC(=O)Cn1cnc2sc(C)c(S(=O)(=O)N3CCN(C)CC3)c2c1=O in this test?
Reply: inactive

Task item: Which outcome was entered for the compound COc1ccc(/C=C2/SC(=O)N(CCCCCC(=O)Nc3ccccc3C(=O)O)C2=S)cc1 in this test?
Reply: active

Task item: Which outcome was entered for the compound Cc1ccc(C2=NN(C(=O)COc3ncnc4ccccc34)C(c3ccco3)C2)cc1 (stereo not given) in this test?
Reply: inactive

Task item: Which outcome was entered for the compound Cc1ccccc1C(=O)Nc1cc(C)c(O)c(-c2nc3ccccc3o2)c1 in this test?
Reply: inactive
